Target: 5-HT2C receptor (Homo sapiens)
Sequence (P28335 33-458): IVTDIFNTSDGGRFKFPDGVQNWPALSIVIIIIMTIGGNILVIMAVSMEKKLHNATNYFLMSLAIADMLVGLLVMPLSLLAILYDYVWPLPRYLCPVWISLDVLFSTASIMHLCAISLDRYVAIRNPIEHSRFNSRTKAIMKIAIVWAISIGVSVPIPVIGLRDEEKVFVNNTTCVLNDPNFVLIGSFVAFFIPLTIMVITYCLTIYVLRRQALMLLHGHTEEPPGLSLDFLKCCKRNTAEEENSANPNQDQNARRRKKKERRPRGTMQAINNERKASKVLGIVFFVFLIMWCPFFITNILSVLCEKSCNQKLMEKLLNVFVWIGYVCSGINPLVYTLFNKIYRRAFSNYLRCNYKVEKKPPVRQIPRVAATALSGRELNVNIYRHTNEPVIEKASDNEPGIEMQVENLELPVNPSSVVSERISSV
Experiment: Functional activity, FLIPR calcium assay in CHO cells expressing human 5-HT2C
Type: cell-based
Design: expressed in transfected cells; host or cells: CHO cells
pEC50: −log10 of the molar value. Counter-ions that a name gives are not always drawn.
pEC50 overview
measured endpoint: pEC50

INSERT INTO results (molecule, reported_result) VALUES
  ('C[C@H](N)CN1CCc2ccc(Cl)c(Cl)c21 [Example 23]', 6.45),
  ('Cc1ccc2c(c1)N(C[C@H](C)N)CC2 [Example 64, Fumarate]', 6.52),
  ('COc1ccc2c(c1)N(CC(C)N)CC2 (racemic) [Example 2, Hydrochloride]', 7.00),
  ('CCc1cccc2c1N(C[C@H](C)N)CC2 [Example 37]', 6.41),
  ('CSc1ccc2c(c1)N(C[C@H](C)N)CC2 [Example 39]', 8.40);

Values from patent US6380238B1
